Tested on: A375P tumor cells
testMethodNotes: Cell growth inhibition assay (CellTiter-Glo), A375P
testContext: Homo sapiens, 72 h, read-out: Activity in A375P Tumor Cells
Measured IC50, listed per entry.

Answered cases to consult:
compound | result
CCNc1nc(-c2cccc(OC)c2)c(-c2ccnc(Nc3ccc(OCCN(C)C)c(C)c3)n2)s1 [Example 77] | < 500 nM
CCNc1nc(-c2cc(OC)cc(OC)c2)c(-c2ccnc(Nc3ccc(N4CCN(C(C)=O)CC4)nc3)n2)s1 [Example 4] | < 500 nM
COc1cc(C)cc(-c2nc(C(C)C)oc2-c2ccnc(Nc3ccc(N4CCN(C(C)=O)CC4)nc3)n2)c1 [Example 98] | 500 to 5000 nM

From here, focus on the item given below.
The compound listed as CCNc1nc(-c2cc(C)cc(OC)c2)c(-c2ccnc(Nc3ccc4c(c3)CS(=O)(=O)C4)n2)s1 [Example 14] shows IC50 equal to < 500 nM

* * *

Tested on: A375P tumor cells
testMethodNotes: Cell growth inhibition assay (CellTiter-Glo), A375P
testContext: Homo sapiens, 72 h, read-out: Activity in A375P Tumor Cells
Quick reference: IC50 of the listed items.

Known results for molecules:
molecule | observable | result
COc1cc(C)cc(-c2nc(C(C)C)oc2-c2ccnc(Nc3ccc(N4CCN(CCS(C)(=O)=O)CC4)c(F)c3)n2)c1 [Example 102] | IC50 | 500 to 5000 nM
CCNc1nc(-c2cc(C)cc(OC)c2)c(-c2ccnc(Nc3ccc(OCCOC)c(F)c3)n2)s1 [Example 38] | IC50 | < 500 nM
COc1cc(OC)cc(-c2nc(NCCF)sc2-c2ccnc(Nc3ccc(OCCN4CCCC4)c(Cl)c3)n2)c1 [Example 21] | IC50 | < 500 nM

Per the records, this molecule ( CCNc1nc(-c2cc(C)cc(OC)c2)c(-c2ccnc(Nc3ccc(N4CCN(CCS(C)(=O)=O)CC4)c(F)c3)n2)s1 [Example 27] ) has IC50 equal to < 500 nM

* * *

Test system: A375P tumor cells
testMethodNotes: Cell growth inhibition assay (CellTiter-Glo), A375P;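 also: total ATP luminescence used as proxy for cell number, serial threefold compound dilutions at 0.2% DMSO, growth inhibition expressed versus DMSO vehicle-treated wells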
testContext: Homo sapiens, 72 h, read-out: Activity in A375P Tumor Cells
pIC50: −log10 of the molar value. Structures can show the parent of a compound that is named as a salt.
// reported pIC50 per item

# count of solved cases: 2
molecule | pIC50
CCNc1nc(-c2cc(OC)cc(OC)c2)c(-c2ccnc(Nc3ccc(N4CCN(CCS(C)(=O)=O)CC4)c(F)c3)n2)o1 [Example 116] | 5.30 to 6.30
CCNc1nc(-c2cc(OC)cc(OC)c2)c(-c2ccnc(Nc3cc(F)c(OC4CCN(CCS(C)(=O)=O)CC4)c(F)c3)n2)o1 [Example 90] | 5.30 to 6.30

Short answer for CCNc1nc(-c2cc(C)cc(OC)c2)c(-c2ccnc(Nc3ccc(OC4CCN(CCS(C)(=O)=O)CC4)c(F)c3)n2)s1 [Example 32] : pIC50 was > 6.30

Record CCNc1nc(-c2cc(OC)cc(OC)c2)c(-c2ccnc(Nc3ccc(OC4CCN(CCS(C)(=O)=O)CC4)c(F)c3)n2)s1 [Example 10] . Reported pIC50: > 6.30

CCNc1nc(-c2cc(C)cc(OC)c2)c(-c2ccnc(Nc3ccc(N4CCN(CCS(C)(=O)=O)CC4)c(F)c3)n2)o1 [Example 127] yielded pIC50 of 5.30 to 6.30

Reported pIC50 ( COc1cc(OC)cc(-c2nc(Nc3ccccc3)sc2-c2ccnc(Nc3ccc(OC4CCN(CCS(C)(=O)=O)CC4)c(F)c3)n2)c1 [Example 23, hydrochloride] ) = 5.30 to 6.30

Documented pIC50 of CCNc1nc(-c2cc(OC)cc(OC)c2)c(-c2ccnc(Nc3ccc(N4CCN(CCS(C)(=O)=O)CC4)nc3)n2)s1 [Example 1] : > 6.30

Input CCNc1nc(-c2cc(OC)cc(OC)c2)c(-c2ccnc(Nc3ccc(N4CCN(CCOC)CC4)c(C(=O)O)c3)n2)o1 [Example 119] . Output pIC50: 5.30 to 6.30

// sample CCNc1nc(-c2cccc(N(C)C)c2)c(-c2ccnc(Nc3ccc(OCCN4CCCC4)c(Cl)c3)n2)s1 [Example 45] , its pIC50 was 5.30 to 6.30

pIC50 recorded for this molecule, CCNc1nc(-c2cc(OC)cc(OC)c2)c(-c2ccnc(Nc3ccc(OC4CCN(C(C)=O)CC4)c(F)c3)n2)s1 [Example 12] , is > 6.30

Per the record, CCNc1nc(-c2cc(C)cc(OC)c2)c(-c2ccnc(Nc3ccc(OC4CCN(CCS(C)(=O)=O)CC4)c(C)c3)n2)o1 [Example 125] has pIC50 of 5.30 to 6.30

// CCc1nc(-c2cc(CO)cc(OC)c2)c(-c2ccnc(Nc3ccc(N4CCN(C(C)=O)CC4)nc3)n2)s1 [Example 65] : pIC50 value = 5.30 to 6.30

pIC50 reading for CCNc1nc(-c2cc(OC)cc(OC)c2)c(-c2ccnc(Nc3ccc(O[C@H]4CCN(CCS(C)(=O)=O)C4)nc3)n2)s1 [Example 3] : > 6.30
